System: HOP-92
Test: NCI tumour cell line growth inhibition, 48 h
Activity calls are given as the source filed them. Cut-off read from the data, not from the text of the source: active = GI50 up to about 1.1 µM and inactive = higher.
Measurement type: GI50

Any idea what GI50 was measured for CCC1CCN=C(Cn2cc(C)c(=O)[nH]c2=O)N1 (stereo not given) ?
> 100 µM (inactive)

Any idea what GI50 was measured for `O=C(O)CCc1nc(-c2ccccc2-n2cccc2)no1` ?
> 100 µM (inactive)

Any idea what GI50 was measured for CC(C)CCCC(C)[C@H]1CCC2[C@@H]3CCC4Cc5nc6c(nc5C[C@]4(C)C3CC[C@@]21C)CC1CC[C@@H]2C(CC[C@@]3(C)C2CC[C@@H]3C(C)CCCC(C)C)[C@@]1(C)C6 (stereo not given in full) ?
> 100 µM (inactive)

Any idea what GI50 was measured for `COc1cc(/C=C/C(=O)c2sc(-n3nc(-c4ccccc4)cc3-c3ccccc3)nc2C)ccc1O` ?
2.47 µM (inactive)

Any idea what GI50 was measured for `Oc1cccc2ccc(Br)nc12` ?
> 100 µM (inactive)

Any idea what GI50 was measured for `COc1ccc(Cc2cc3c(cc2OCC(=O)O)OCO3)cc1` ?
> 100 µM (inactive)

Any idea what GI50 was measured for `[N-]=[N+]=Nc1c([N+](=O)[O-])c(=O)n(-c2ccccc2)c2ccccc12` ?
26.4 µM (inactive)

Any idea what GI50 was measured for `O=C1N/N=C\c2ccc(cc2)OCc2cccc(n2)COc2ccc(cc2)/C=N\NC1=O` ?
> 25 µM (inactive)

Any idea what GI50 was measured for O=C1/C(=C/c2ccc(Cl)cc2)CCC1CCN1CCOCC1 (stereo not given) ?
75.7 µM (inactive)

Any idea what GI50 was measured for OCCSCC(O)Cn1cnc2c(O)nc(Nc3ccccc3)nc21 (stereo not given) ?
> 100 µM (inactive)

====

System: Malme-3M
Experiment: NCI tumour cell line growth inhibition, 48 h
Activity calls are given as the source filed them. No stated cut-off is given here; in the data, active = GI50 up to about 1.1 µM and inactive = higher.
Measurement type: GI50

Any idea what GI50 was measured for `CC1(C)OP(=O)(O)C=C1Sc1ccc([N+](=O)[O-])cc1[N+](=O)[O-]` ?
> 100 µM (inactive)

Any idea what GI50 was measured for COc1ccc(C2SCC(=O)N2c2ccc(-c3ccc(-n4c(-c5ccccc5)nc5ccccc5c4=O)cc3)cc2)cc1OC (stereo not given) ?
81.8 µM (inactive)

Any idea what GI50 was measured for `O=S(=O)(Nc1ccccc1S(=O)(=O)c1ccccc1)c1ccccc1` ?
69.5 µM (inactive)

Any idea what GI50 was measured for `CN(C(=O)c1ccc(Cl)cc1)C(=S)N1CCN(c2ccccc2)CC1` ?
> 100 µM (inactive)

Any idea what GI50 was measured for `CCOC(=O)c1c(CN2CCOCC2)n(Cc2ccccc2)c2c1cc(O)c1nc(C)c(C)nc12` ?
45.8 µM (inactive)

====

Hi there, I'd appreciate the recorded GI50 for every entry that follows.
Test system: SK-MEL-28
Assay: NCI tumour cell line growth inhibition, 48 h
Active and inactive are the calls of the source. Cut-off read from the data, not from the text of the source: active = GI50 up to about 1.1 µM and inactive = higher.

Any idea what GI50 was measured for `Oc1cc(-c2ccc(Cl)cc2)cn2c1nc1ccccc12` ?
> 100 µM (inactive)

Any idea what GI50 was measured for `O=C1Nc2ccc(Br)cc2/C1=N/S(=O)(=O)O` ?
30.9 µM (inactive)

Any idea what GI50 was measured for `COc1cc2ccnc3c2c(c1OC)N(C)C=C3` ?
32.7 µM (inactive)

Any idea what GI50 was measured for `O=C(O)c1cc(N(Cc2ccccc2O)Cc2cc(O)ccc2O)ccc1O` ?
> 100 µM (inactive)

Any idea what GI50 was measured for O=C1OC(c2ccccc2)=N/C1=C/NC(Cc1c[nH]cn1)C(=O)O (stereo unspecified) ?
> 100 µM (inactive)

Any idea what GI50 was measured for O=C(O)C1CCCN1Cc1ccc2c(c1)OCO2 (stereo unspecified) ?
> 100 µM (inactive)

Any idea what GI50 was measured for `[N-]=[N+]=Nc1ccccc1-[n+]1noc([O-])c1Br` ?
> 100 µM (inactive)

Any idea what GI50 was measured for COC(=O)C1CCC(=O)N1CN(C(C)=O)c1ccccc1Cl (stereo unspecified) ?
> 100 µM (inactive)

Any idea what GI50 was measured for `CCCSc1nc(COC(=O)NC)c(COC(=O)NC)n1C` ?
> 100 µM (inactive)

Any idea what GI50 was measured for COc1ccc(NC(=O)/C(CC2=Nc3ccc([N+](=O)[O-])cc3NC2O)=N\NC(=O)C[N+](C)(C)C)c(OC)c1 (stereo unspecified) ?
97.9 µM (inactive)

Any idea what GI50 was measured for `COc1ccc2c(C)c(Oc3c(Cl)c(Cl)c(O)c(C#N)c3C#N)oc2c1` ?
> 100 µM (inactive)
